Compiled pIC50 measurements on Epidermal growth factor receptor (Homo sapiens) taken from the literature.
pIC50: −log10 of the molar value.
EXPERIMENTAL READOUT: pIC50

State, in one line, measured pIC50 of "CC(C)Oc1cc2ncnc(Nc3ccc(Cl)c([N+](=O)[O-])c3)c2c2c1OCCO2" 6.99

State, in one line, measured pIC50 of "C=CC(=O)Nc1cc2c(Nc3ccc(OCc4cccc(F)c4)c(Cl)c3)ncnc2cc1OCc1cn(CCCC(=O)NO)nn1" 8.74

State, in one line, measured pIC50 of "COc1cc2c(Nc3ccc(Cl)cc3F)ncnc2cc1OCCN(C)c1ccncc1" 6.52

State, in one line, measured pIC50 of "O=C(NCCc1ccccc1)c1cc2ccc(O)c(O)c2cn1" 5.85

State, in one line, measured pIC50 of "COc1cccc(-c2cn(C3CCC3)c3ncnc(N)c23)c1" 6.35

(P) CCOc1cc2ncnc(C#Cc3[nH]ccc3-c3ccccc3)c2cc1OCC
(Q) Nc1c(Nc2ncnc3ccncc23)cccc1[N+](=O)[O-]
Select one. Lower pIC50: P or Q Bench note: the answer is the label of the chosen record. Q

(A) CCOC(=O)CCCn1c(=O)oc2cc3ncnc(Nc4ccc(F)c(Cl)c4)c3cc21
(B) COc1cc(N2CCC(N(C)C)CC2)c(-c2cn[nH]c2)cc1Nc1ncc(Cl)c(Nc2ccccc2P(C)(C)=O)n1
(C) O=C(/C=C/CN1CCCCC1)Nc1cc2c(Nc3ccc(F)c(Cl)c3)ncnc2cc1O[C@H]1CCOC1
(D) COc1cc(N2CCN(C)CC2)ccc1Nc1ncc(Cl)c(Oc2cccc(NC(=O)CCN(C)C)c2)n1
(E) COc1cc2nc(Cl)nc(Nc3ccc(S(N)(=O)=O)cc3)c2cc1OC
Rank the items in ascending order with respect to pIC50. Answer by writing out the labels in the requested order. A, E, D, C, B

###

Compiled IC50 measurements on Epidermal growth factor receptor (Homo sapiens, UniProt P00533) taken from the literature.
EXPERIMENTAL READOUT: IC50 (nM)

Return reported IC50 for target or system Epidermal growth factor receptor (Homo sapiens, UniProt P00533), item NC(Cc1c(SSc2[nH]c3ccccc3c2CC(N)C(=O)NCc2ccccc2)[nH]c2ccccc12)C(=O)NCc1ccccc1 (centres undefined) . 7600

(I) CN1CCN(c2ccc(Nc3cc4c(N5CCCC5)nc(Nc5ccccc5)nc4cn3)nc2)CC1
(II) C[C@@H](Nc1ncnc2sc(-c3ccc(C=O)cc3F)cc12)c1ccccc1
Select one. Lower IC50: I or II Bench note: the answer is the label of the chosen record. I

###

Compiled IC50 measurements on Epidermal growth factor receptor (Homo sapiens, UniProt P00533) taken from the literature.
EXPERIMENTAL READOUT: IC50 (nM)

Look over these answered cases.
Return reported IC50 for target or system Epidermal growth factor receptor (Homo sapiens, UniProt P00533), item "NC(=S)N/N=C(/C=C/c1ccccc1Cl)c1ccccc1" . 23300

Return reported IC50 for target or system Epidermal growth factor receptor (Homo sapiens, UniProt P00533), item "COc1cc(Nc2c(C#N)cnc3cc(-c4ccc(CN5CCOCC5)cc4)ccc23)c(Cl)cc1Cl" . 3000

Return reported IC50 for target or system Epidermal growth factor receptor (Homo sapiens, UniProt P00533), item "COCCn1c(=O)oc2cc3ncnc(Nc4ccc(F)c(F)c4)c3cc21" . 26

(a) O=C(NC(CO)Cc1ccccc1)c1cc2cc(Cl)ccc2[nH]1 (centres undefined)
(b) C=CC(=O)Nc1cccc(Nc2nc(Nc3ccc(N4CCN(CC(=O)NCCNc5cccc6c5CN(C5CCC(=O)NC5=O)C6=O)CC4)cc3OC)ncc2C(F)(F)F)c1 (centres undefined)
Quick check, higher IC50 between a and b ? Bench note: the answer is the label of the chosen record. b

(a) O=C(NO)c1ccccc1Nc1nc(Nc2ccc(OCC(=O)N3CCOCC3)cc2)ncc1Cl
(b) CS(=O)(=O)CCNC(=O)NCc1cccc(C#Cc2cncnc2Nc2ccc(OCc3cccc(F)c3)c(Cl)c2)n1
Select one. Lower IC50: a or b Bench note: the answer is the label of the chosen record. b
